# System: SpTbr T-box DNA-binding domain (GST fusion);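 also: protein at 200 nM in PBS on universal double-stranded arrays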
# Sequence: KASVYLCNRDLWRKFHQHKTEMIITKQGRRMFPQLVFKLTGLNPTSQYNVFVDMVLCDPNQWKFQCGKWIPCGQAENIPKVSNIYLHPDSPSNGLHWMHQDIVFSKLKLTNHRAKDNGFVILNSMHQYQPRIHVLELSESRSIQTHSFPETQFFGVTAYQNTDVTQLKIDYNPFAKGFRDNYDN
# procedureSummary: PBM E-score of 8-mer (E-score (dimensionless, -0.5 to 0.5)); higher = stronger binding preference
# conditionDetails: the construct has about 5 more residues each side
Whole data set: some 33,000 sequences, median “E-score (dimensionless, -0.5 to 0.5)” near -0.046, cut for the highest 2% near 0.36. What follows is part of a selection rich in the highest values, with near analogues and random picks from the rest.
Recorded PBM E-score of 8-mer determines the label; the label ranges are LOW: < -0.05; MID: ≥ -0.05 and < 0.1; HIGH: ≥ 0.1

# count of solved cases: 3
AGACACTC	HIGH
CGCGCGCC	HIGH
AGTCGACA	HIGH

Tag the class for AGTGCTCC
LOW

For AGAAGTGA , which PBM E-score of 8-mer bin applies?
HIGH

Just checking, what class would you give CACTCGGC here?
HIGH

# bin lookup: classify ACGTGCGA by its PBM E-score of 8-mer
HIGH

Bin? ACTGGACC
LOW

Category lookup for the sequence CCATAAGG
LOW

// return the class label for TAGGCGAA
MID

Which bin, given its PBM E-score of 8-mer, does GAGTGCAA occupy?
MID

###

# Test system: SpTbr T-box DNA-binding domain (GST fusion);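 also: protein at 200 nM in PBS on universal double-stranded arrays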
# Sequence: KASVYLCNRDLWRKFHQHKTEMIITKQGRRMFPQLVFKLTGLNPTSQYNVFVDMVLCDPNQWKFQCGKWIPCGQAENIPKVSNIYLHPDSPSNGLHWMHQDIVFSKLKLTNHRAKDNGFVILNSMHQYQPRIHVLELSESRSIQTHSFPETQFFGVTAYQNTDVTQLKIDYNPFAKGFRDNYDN
# procedureSummary: PBM E-score of 8-mer (E-score (dimensionless, -0.5 to 0.5)); higher = stronger binding preference
# conditionDetails: target sequence: T-box / the construct has about 5 more residues each side
In all, about 33,000 sequences were measured (“E-score (dimensionless, -0.5 to 0.5)”: median about -0.046, highest 2% from about 0.36 on). The entries come from a sample that favours the highest values as a whole.
Catalogue of PBM E-score of 8-mer values
The answer should be written as a number, with no unit following it.

CCTGGAGC	-0.16

Query (sequence): ATCACACG ; field requested: PBM E-score of 8-mer
0.417

Look up PBM E-score of 8-mer for this sequence: AACAATGA
0.0839

Given ATCACAAA , state its recorded PBM E-score of 8-mer.
0.106

// returns reported PBM E-score of 8-mer for input CCAACTCA
-0.0818

Using the record for CGGTTAAA , report its PBM E-score of 8-mer.
-0.129

Value lookup for PBM E-score of 8-mer; key = CCATGCGC
-0.0395

For the sequence GACACCGA , what PBM E-score of 8-mer is on record?
0.293

###

# Test system: SpTbr T-box DNA-binding domain (GST fusion);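 also: protein at 200 nM in PBS on universal double-stranded arrays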
# Sequence: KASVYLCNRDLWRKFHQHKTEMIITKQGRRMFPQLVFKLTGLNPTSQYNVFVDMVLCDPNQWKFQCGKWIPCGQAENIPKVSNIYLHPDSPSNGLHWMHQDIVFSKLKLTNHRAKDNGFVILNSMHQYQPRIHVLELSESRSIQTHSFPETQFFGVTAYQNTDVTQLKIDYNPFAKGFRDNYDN
# procedureSummary: PBM E-score of 8-mer (E-score (dimensionless, -0.5 to 0.5)); higher = stronger binding preference
# conditionDetails: target sequence: T-box / the construct has about 5 more residues each side
Over roughly 33,000 sequences, “E-score (dimensionless, -0.5 to 0.5)” has its median near -0.046; the highest 2% begin near 0.36. What follows is part of a selection rich in the highest values, with near analogues and random picks from the rest.
Known PBM E-score of 8-mer of a selection of sequences
API doc: respond with a numeric literal and nothing else, no unit.

CGTATGCC	-0.271
GCCACCCA	0.0264
TAGACCCA	-0.101

Suppose we examine the sequence GTTGACCA ; what PBM E-score of 8-mer value has been reported?
0.142

Which PBM E-score of 8-mer is reported for this sequence? ACGTCACG
0.217

Which PBM E-score of 8-mer is reported for this sequence? AGCACCCT
0.202

If you can, please state the reported PBM E-score of 8-mer value of GGCTCTCA .
0.0783

Recorded PBM E-score of 8-mer of CCTCGTTC , please.
0.0141

Look up PBM E-score of 8-mer: GCACGTGC
0.312

Name the reported PBM E-score of 8-mer value associated with the sequence ATCTAGAA
-0.151

###

# Tested on: SpTbr T-box DNA-binding domain (GST fusion);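 also: protein at 200 nM in PBS on universal double-stranded arrays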
# Sequence: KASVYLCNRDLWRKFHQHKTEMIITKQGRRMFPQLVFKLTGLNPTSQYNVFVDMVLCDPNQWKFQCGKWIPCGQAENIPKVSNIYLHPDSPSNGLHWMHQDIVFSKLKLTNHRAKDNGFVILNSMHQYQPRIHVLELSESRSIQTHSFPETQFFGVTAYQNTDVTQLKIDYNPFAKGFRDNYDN
# procedureSummary: PBM E-score of 8-mer (E-score (dimensionless, -0.5 to 0.5)); higher = stronger binding preference
# conditionDetails: target sequence: T-box / the construct has about 5 more residues each side
In all, about 33,000 sequences were measured (“E-score (dimensionless, -0.5 to 0.5)”: median about -0.046, highest 2% from about 0.36 on). Shown is part of a subset that was picked to be rich in the highest values.
outcomeMeasure: PBM E-score of 8-mer
Number only, please.

GTCTATAA	-0.0104
AAAGTGTG	0.441
AAGTGTAC	0.00907

For CTAGGTTA , what is its reported PBM E-score of 8-mer?
-0.16

// PBM E-score of 8-mer lookup, key: ACAAGTGT
0.381

###

Consider the following sequences and their measured PBM E-score of 8-mer readings.
# Tested on: SpTbr T-box DNA-binding domain (GST fusion);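 also: protein at 200 nM in PBS on universal double-stranded arrays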
# Sequence: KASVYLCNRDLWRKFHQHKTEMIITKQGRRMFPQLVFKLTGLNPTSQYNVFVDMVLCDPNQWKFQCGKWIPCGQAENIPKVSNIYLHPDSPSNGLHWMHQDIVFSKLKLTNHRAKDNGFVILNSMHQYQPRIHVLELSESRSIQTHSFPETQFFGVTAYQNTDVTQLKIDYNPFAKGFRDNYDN
# procedureSummary: PBM E-score of 8-mer (E-score (dimensionless, -0.5 to 0.5)); higher = stronger binding preference
# conditionDetails: target sequence: T-box / the construct has about 5 more residues each side
Over roughly 33,000 sequences, “E-score (dimensionless, -0.5 to 0.5)” has its median near -0.046; the highest 2% begin near 0.36. This is one part of a sample in which the highest values are shown more often than they occur.
Please reply with the number alone, leaving off any unit.

Illustrative cases are given below, each with its answer.
TAACCGAA	-0.212
CACTTGTA	0.116
AAATGGTA	-0.152
GTGTCAGA	0.387
GGTCTCAA	-0.0536

What does the record list as PBM E-score of 8-mer for ACCCCTCT ?
-0.063

Reported PBM E-score of 8-mer for CACGCAGA : what is it?
0.0713

What does the record list as PBM E-score of 8-mer for CGATTTTA ?
-0.151

Suppose we examine the sequence CGCCACAC ; what PBM E-score of 8-mer value has been reported?
0.365

Item ACTCTTTA has what recorded PBM E-score of 8-mer?
0.0329

I'd like to know its PBM E-score of 8-mer. The sequence in question is GGTGTAAA
0.436

Which value of PBM E-score of 8-mer has been reported for AAAGTGAA in the records?
-0.017

###

# Test system: SpTbr T-box DNA-binding domain (GST fusion);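 also: protein at 200 nM in PBS on universal double-stranded arrays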
# Sequence: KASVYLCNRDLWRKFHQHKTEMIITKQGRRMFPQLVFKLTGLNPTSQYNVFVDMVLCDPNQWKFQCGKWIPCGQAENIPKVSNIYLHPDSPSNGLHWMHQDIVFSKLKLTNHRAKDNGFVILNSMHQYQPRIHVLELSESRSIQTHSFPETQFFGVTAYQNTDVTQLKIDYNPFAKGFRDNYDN
# procedureSummary: PBM E-score of 8-mer (E-score (dimensionless, -0.5 to 0.5)); Tbr is Tbrain of the sea star Patiria miniata (Pm) or the sea urchin Strongylocentrotus purpuratus (Sp); higher = stronger binding preference
# conditionDetails: target sequence: T-box / the construct has about 5 more residues each side
Whole data set: some 33,000 sequences, median “E-score (dimensionless, -0.5 to 0.5)” near -0.046, cut for the highest 2% near 0.36. For the sample, the highest values were picked, then their nearest neighbours and some sequences at random.
Entry class follows PBM E-score of 8-mer: label 0 = under -0.05, label 1 = from -0.05 up to 0.2, label 2 = 0.2 and over

CTTCTCTC	label 1
AATGTGCG	label 2
ACCCGAGA	label 1

Band assignment needed for AAGCAAGG please.
label 0

Band for the recorded PBM E-score of 8-mer of GAATAGCA ?
label 1

Class (by measured PBM E-score of 8-mer) for CTTCTCAA
label 1

Please let me know in which category the item CGCGCGAG belongs.
label 2

Which bin, given its PBM E-score of 8-mer, does TCATTGGA occupy?
label 0

Please let me know in which category the item GGATGACC belongs.
label 1

Field: class (PBM E-score of 8-mer) — entry: ATTCTCAA
label 1

Which class holds CGATGCAG ?
label 0

Lab log: AATGTGTC — assign PBM E-score of 8-mer category
label 2

Into which category would you place AGAGAAAT ?
label 1

The entry to classify is CGAGGGTA ; which class holds it?
label 0

Recorded values, source the supplement of paper PMC4166925.
